Some compounds, each annotated with its measured IC50.
# Target Or System: UniProt:P20505
The reply should contain only the number, in nM.

// worked examples, IC50 included
>>> df
                                   compound  experimental_readout  recorded_number
0  CCc1c(O)c2c(c(O)c1C(C)=O)C(=O)c1c(cc(O)c(C(=O)O)c1C(=O)O)C2=O                  IC50             2500
1  O=C(O)c1cc2c(cc1S(=O)(=O)O)C1C(C3C2C2(Cl)C(Cl)=C(Cl)C3(Cl)C2(Cl)Cl)C2(Cl)C(Cl)=C(Cl)C1(Cl)C2(Cl)Cl (stereo not shown)                  IC50             2500
2  CC1C2C=CC1C(c1c3ccc(=O)c(O)c-3oc3c(O)c(O)ccc13)C2C(=O)O (stereo not shown)                  IC50             2500
3  O=C(O)CCc1c2ccc(=O)c(O)c-2oc2c(O)c(O)ccc12                  IC50             3000
4  O=C(O)C=Cc1c2ccc(=O)c(O)c-2oc2c(O)c(O)ccc12                  IC50             3000
5  Nc1nc(N)c(/N=N/c2ccc(C(=O)O)c(O)c2)c(N)n1                  IC50             1000

Name the reported IC50 value associated with the compound O=C(O)C1CCCCC1c1c2ccc(=O)c(O)c-2oc2c(O)c(O)ccc12 (stereo not shown)
3500

---

# Target Or System: vaccinia virus B1 kinase (GST-B1) (Vaccinia virus, UniProt P20505)
# Assay Details: biochemical
# Format: biochemical
# Reported Conditions: read-out: Percent activity remaining at 10 μM, B1
Label key: Fulfilled means remaining activity at 10 µM under 10%; Not fulfilled means remaining activity at 10 µM of 10% or more.

Compound	Qualitative Label
O=C(O)CCc1c2ccc(=O)c(O)c-2oc2c(O)c(O)ccc12 [Compound 119915-Z]	Fulfilled
O=C(O)c1cc2c(cc1S(=O)(=O)O)C1C(C3C2C2(Cl)C(Cl)=C(Cl)C3(Cl)C2(Cl)Cl)C2(Cl)C(Cl)=C(Cl)C1(Cl)C2(Cl)Cl (stereo not shown) [Compound 270718-R]	Not fulfilled
CC1C2C=CC1C(c1c3ccc(=O)c(O)c-3oc3c(O)c(O)ccc13)C2C(=O)O (stereo not shown) [Compound 119913-X]	Fulfilled
O=C(O)C=Cc1c2ccc(=O)c(O)c-2oc2c(O)c(O)ccc12 [Compound 119911-V]	Fulfilled
O=C(O)c1cccc(/N=N/c2c(S(=O)(=O)O)ccc3c2C(=O)c2ccccc2C3=O)c1O [Compound 125908-P]	Not fulfilled
O=C1c2ccccc2C(=O)c2c(NC3CCCCC3)ccc(Nc3ccc(S(=O)(=O)O)cc3)c21 [Compound 128437-O]	Not fulfilled

Alright, here's another compound for you.
Lab log: compare recorded remaining activity at 10 µM with 10%; is it strictly lower for O=C(O)C1CCCCC1c1c2ccc(=O)c(O)c-2oc2c(O)c(O)ccc12 (stereo not shown) [Compound 119910-U] ?
Fulfilled

---

# Target Or System: vaccinia virus B1 kinase (GST-B1) (Vaccinia virus)
# Assay Details: biochemical
# Assay type: biochemical
# Reported Conditions: read-out: Percent activity remaining at 10 μM, B1
Experimental Readout: remaining activity at 10 µM (%)
The reply should contain only the number, in %.

// worked examples, remaining activity at 10 µM included
>>> df
                            chemical_string  recorded_number
0  Nc1nc(N)c(/N=N/c2ccc(C(=O)O)c(O)c2)c(N)n1                4
1  CCc1c(O)c2c(c(O)c1C(C)=O)C(=O)c1c(cc(O)c(C(=O)O)c1C(=O)O)C2=O               12

Proceed to the following item.
Name the reported remaining activity at 10 µM value associated with the molecule O=S(=O)(O)c1ccc(NN(c2c(O)ccc3ccccc23)S(=O)(=O)O)cc1
93
